These data points were gathered from patent EP0327744A1.

# assay system: V₁(pressor)-receptor (Rattus norvegicus, UniProt P30560)
# Construct: crude membrane preparation of rat liver (V₁ receptor); from tissue; host or cells: rat liver, crude membrane preparation
# Sequence (P30560 whole entry): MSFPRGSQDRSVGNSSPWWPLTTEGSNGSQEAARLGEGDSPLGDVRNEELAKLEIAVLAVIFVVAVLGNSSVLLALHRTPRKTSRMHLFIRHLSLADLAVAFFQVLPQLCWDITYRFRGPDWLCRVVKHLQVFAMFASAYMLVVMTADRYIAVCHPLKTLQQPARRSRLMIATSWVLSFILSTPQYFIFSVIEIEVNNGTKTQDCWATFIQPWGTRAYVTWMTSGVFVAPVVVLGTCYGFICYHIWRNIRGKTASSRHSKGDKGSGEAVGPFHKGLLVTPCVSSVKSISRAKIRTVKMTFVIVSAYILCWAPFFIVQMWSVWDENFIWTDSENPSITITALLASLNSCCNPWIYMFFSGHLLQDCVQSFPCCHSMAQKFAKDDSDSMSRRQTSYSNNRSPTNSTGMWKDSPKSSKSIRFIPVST
# experiment summary: [³H]Arginine Vasopressin Binding Assay, liver membranes (V₁)
# details: IC₅₀ Values ³H-Arg⁸-Vasopressin Binding Liver (V₁), rat liver membranes; molar IC₅₀ in brackets, based on MW of 700
observed property: pIC50
By convention, pIC50 is the negative base-10 log of a molar concentration.

I have this molecule here, CC(C)CC1C(=O)N2NCCCC2C(=O)N2NCCCC2C(=O)N(C)C(Cc2ccccc2)C(=O)N2CCCC2C(=O)NC(Cc2ccccc2)C(=O)N1O (stereo not shown) , and I need its recorded pIC50. 5.22
